# target_or_test_system: His-LAMA4 as used in Example 6 (species not stated) (Homo sapiens (Human)) (UniProt Q16363)
# experimental_protocol: ForteBio BLI, LAMA-His on anti-His sensor, antibody 16.7 nM
# Response per entry
test_readout: Response

binder: humanized 19C12 antibody H2L4 (antibody, V domains shown) VH: QVQLQQSGAELVKPGASVKVSCKASGYAFSTYWMNWVRQAPGQGLEWIGQIYPGDGDTNYNGKFKGRVTITADKSTSTAYMELSSLRSEDTAVYFCARSDGYYDYWGQGTTVTVSS VL: NIVLTQSPASLAVSLGERATISCRASESVDSYGTSFMHWYQQKPGQPPKLLISLASSLESGVPARFSGSGSGTDFTLTISPVEAEDAATYYCQQNNEDPPTFGAGTKLEIKR
experimental_value: 1.26
//
binder: humanized 19C12 antibody H3L6 (antibody, V domains shown) VH: EVQLQQSGAELVKPGASVKVSCKASGYAFSTYWMNWVRQAPGQGLEWIGQIYPGDGDTNYNGKFKGRVTITADKSTSTAYMELSSLRSEDTAVYFCARSDGYYDYWGQGTTVTVSS VL: DIVLTQSPASLAVSLGERATISCRASESVDSYGTSFMHWYQQKPGQPPKLLISLASSLESGVPARFSGSGSGTDFTLTISPVEAEDAATYYCQQNNEDPPTFGAGTKLEIKR
experimental_value: 1.21
//
binder: chimeric 19C12 antibody (antibody, V domains shown) VH: QVQLQQSGAELVKPGASVKISCKASGYAFSTYWMNWVKQRPGEGLEWIGQIYPGDGDTNYNGKFKGKATLTADKSSSTAYMQLSSLTSEDSAVYFCARSDGYYDYWGQGTTLTVSS VL: NIVLTQSPASLAVSLGQRATISCRASESVDSYGTSFMHWYQQKPGQPPKLLICLASSLESGVPARFSGSGSRTDFTLTIDPVEADDAATYYCQQNNEDPPTFGAGTKLELKR
experimental_value: 1.27
//
binder: humanized 19C12 antibody H2L3 (antibody, V domains shown) VH: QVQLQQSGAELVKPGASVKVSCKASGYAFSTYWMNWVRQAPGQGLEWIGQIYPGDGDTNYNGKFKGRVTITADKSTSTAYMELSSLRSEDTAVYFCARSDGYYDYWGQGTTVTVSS VL: NIVLTQSPASLAVSLGERATISCRASESVDSYGTSFMHWYQQKPGQPPKLLICLASSLESGVPARFSGSGSRTDFTLTIDPVEAEDAATYYCQQNNEDPPTFGAGTKLEIKR
experimental_value: 1.34
